- STUDY TARGET: Toll-like receptor 1/2 (Mus musculus)
- ASSAY REMARKS: Agonist activity at TLR2/TLR1 in mouse Macrophage cell line
pEC50: −log10 of the molar value.
METRIC: pEC50

Here is how some compounds turned out for pEC50.
# ITEM SMILES, METRIC, ASSAY VALUE
data = [
    ("COc1cc(C(=O)N2C[C@@H](C(=O)N[C@H]3C[C@@H]3c3ccccc3)[C@H](C(=O)N[C@H]3C[C@@H]3c3ccccc3)C2)ccc1C(=O)N1C[C@@H](C(=O)N[C@H]2C[C@@H]2c2ccccc2)[C@H](C(=O)N[C@H]2C[C@@H]2c2ccccc2)C1", "pEC50", 6.60),
    ("CCCCCCCCNC(=O)[C@@H]1CN(C(=O)c2ccc(C(=O)N3C[C@@H](C(=O)N[C@H]4C[C@@H]4c4ccccc4)[C@H](C(=O)N[C@@H]4C[C@H]4c4ccccc4)C3)cc2)C[C@H]1C(=O)N[C@H]1C[C@@H]1c1ccccc1", "pEC50", 6.27),
    ("O=C(N[C@H]1C[C@@H]1c1ccccc1)[C@@H]1CN(C(=O)c2ccc(-c3ccc(C(=O)N4C[C@@H](C(=O)N[C@H]5C[C@@H]5c5ccccc5)[C@H](C(=O)N[C@H]5C[C@@H]5c5ccccc5)C4)cc3)cc2)C[C@H]1C(=O)N[C@H]1C[C@@H]1c1ccccc1", "pEC50", 5.64),
    ("CCCCNC(=O)[C@@H]1CN(C(=O)c2ccc(C(=O)N3C[C@@H](C(=O)N[C@H]4C[C@@H]4c4ccccc4)[C@H](C(=O)N[C@@H]4C[C@H]4c4ccccc4)C3)cc2)C[C@H]1C(=O)NCCCC", "pEC50", 7.22),
]

[I] CCCCCCCCCCNC(=O)[C@@H]1CN(C(=O)c2ccc(C(=O)N3C[C@@H](C(=O)NCCCCCCCCCC)[C@H](C(=O)N[C@@H]4C[C@H]4c4ccccc4)C3)cc2)C[C@H]1C(=O)N[C@@H]1C[C@H]1c1ccccc1
[II] O=C(N[C@H]1C[C@@H]1c1ccc(Cl)cc1)[C@@H]1CN(C(=O)c2ccc(C(=O)N3C[C@@H](C(=O)N[C@H]4C[C@@H]4c4ccc(Cl)cc4)[C@H](C(=O)N[C@@H]4C[C@H]4c4ccc(Cl)cc4)C3)cc2)C[C@H]1C(=O)N[C@H]1C[C@@H]1c1ccc(Cl)cc1
Prompt: Pick one: I or II . Which one has the lower reported pEC50? Which one? Tell me its label.
Completion: II

---

- STUDY TARGET: Toll-like receptor 1/2 (Homo sapiens, UniProt O60603+Q15399)
- Sequence (O60603 whole entry): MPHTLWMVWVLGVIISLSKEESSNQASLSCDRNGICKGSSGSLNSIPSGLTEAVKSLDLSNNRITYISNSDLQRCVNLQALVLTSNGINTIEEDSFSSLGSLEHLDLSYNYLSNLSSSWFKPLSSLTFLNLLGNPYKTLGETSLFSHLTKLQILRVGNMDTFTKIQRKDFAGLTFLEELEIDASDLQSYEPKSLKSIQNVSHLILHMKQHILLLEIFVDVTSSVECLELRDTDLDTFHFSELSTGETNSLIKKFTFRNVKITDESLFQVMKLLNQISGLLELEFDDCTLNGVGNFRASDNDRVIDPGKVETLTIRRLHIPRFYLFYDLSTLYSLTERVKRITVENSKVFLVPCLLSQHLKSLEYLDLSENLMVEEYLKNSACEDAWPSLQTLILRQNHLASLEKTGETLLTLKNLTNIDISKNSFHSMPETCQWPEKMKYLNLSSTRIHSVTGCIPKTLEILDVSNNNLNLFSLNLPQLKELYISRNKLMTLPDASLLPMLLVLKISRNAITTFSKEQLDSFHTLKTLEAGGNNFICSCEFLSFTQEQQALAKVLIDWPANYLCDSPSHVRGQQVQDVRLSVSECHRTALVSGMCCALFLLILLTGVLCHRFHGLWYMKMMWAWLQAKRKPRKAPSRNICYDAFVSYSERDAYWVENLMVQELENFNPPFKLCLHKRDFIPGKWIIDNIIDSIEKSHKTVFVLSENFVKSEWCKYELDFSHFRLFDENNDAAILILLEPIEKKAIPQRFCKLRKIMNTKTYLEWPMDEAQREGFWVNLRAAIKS
- Sequence (Q15399 whole entry): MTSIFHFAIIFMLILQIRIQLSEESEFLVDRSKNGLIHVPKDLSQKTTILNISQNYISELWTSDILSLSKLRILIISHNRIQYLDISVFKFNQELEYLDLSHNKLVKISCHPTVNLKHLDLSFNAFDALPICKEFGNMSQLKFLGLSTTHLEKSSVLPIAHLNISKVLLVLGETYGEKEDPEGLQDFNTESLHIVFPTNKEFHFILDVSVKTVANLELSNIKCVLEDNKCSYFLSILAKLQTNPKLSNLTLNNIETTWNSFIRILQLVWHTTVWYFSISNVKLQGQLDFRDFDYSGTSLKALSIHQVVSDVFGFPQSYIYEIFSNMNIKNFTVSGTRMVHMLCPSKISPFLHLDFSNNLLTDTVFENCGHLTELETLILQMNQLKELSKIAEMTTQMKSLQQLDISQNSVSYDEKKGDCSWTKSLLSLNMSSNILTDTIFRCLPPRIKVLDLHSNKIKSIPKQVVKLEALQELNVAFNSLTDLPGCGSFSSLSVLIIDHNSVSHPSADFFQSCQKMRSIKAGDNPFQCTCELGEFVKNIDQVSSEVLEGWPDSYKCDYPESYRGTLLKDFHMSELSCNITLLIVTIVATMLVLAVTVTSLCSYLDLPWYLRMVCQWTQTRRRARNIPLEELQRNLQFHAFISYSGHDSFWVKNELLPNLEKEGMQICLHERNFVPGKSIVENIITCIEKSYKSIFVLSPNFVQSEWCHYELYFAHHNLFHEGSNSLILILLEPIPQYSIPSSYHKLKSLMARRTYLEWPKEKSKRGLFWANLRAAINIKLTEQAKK
- ASSAY REMARKS: Agonist activity at TLR2/TLR1 in human THP-1 cells
- Format: cell-based
METRIC: EC50 (nM)

Here is how some compounds turned out for EC50.
# ITEM SMILES, EC50 [nM]
rows = [
    ("COC(=O)[C@@H]1CN(C(=O)c2ccc(C(=O)N3C[C@@H](C(=O)N[C@H]4C[C@@H]4c4ccccc4)[C@H](C(=O)N[C@@H]4C[C@H]4c4ccccc4)C3)cc2)C[C@H]1C(=O)N[C@H]1C[C@@H]1c1ccccc1", 15),
    ("CCCCCCCCCCCCCCNC(=O)[C@@H]1CN(C(=O)c2ccc(C(=O)N3C[C@@H](C(=O)N[C@H]4C[C@@H]4c4ccccc4)[C@H](C(=O)N[C@@H]4C[C@H]4c4ccccc4)C3)cc2)C[C@H]1C(=O)N[C@H]1C[C@@H]1c1ccccc1", 0.08),
    ("O=C(N[C@H]1C[C@@H]1c1ccccc1)[C@@H]1CN(C(=O)/C=C/C=C/C(=O)N2C[C@@H](C(=O)N[C@H]3C[C@@H]3c3ccccc3)[C@H](C(=O)N[C@H]3C[C@@H]3c3ccccc3)C2)C[C@H]1C(=O)N[C@H]1C[C@@H]1c1ccccc1", 0.2),
    ("O=C(O)[C@@H]1CN(C(=O)c2ccc(C(=O)N3C[C@@H](C(=O)N[C@H]4C[C@@H]4c4ccccc4)[C@H](C(=O)N[C@@H]4C[C@H]4c4ccccc4)C3)cc2)C[C@H]1C(=O)N[C@H]1C[C@@H]1c1ccccc1", 200),
]

[A] O=C(N[C@H]1C[C@@H]1c1ccccc1)[C@@H]1CN(C(=O)Cc2cnc(CC(=O)N3C[C@@H](C(=O)N[C@H]4C[C@@H]4c4ccccc4)[C@H](C(=O)N[C@H]4C[C@@H]4c4ccccc4)C3)cn2)C[C@H]1C(=O)N[C@H]1C[C@@H]1c1ccccc1
[B] O=C(NCCc1ccc(F)cc1)[C@@H]1CN(C(=O)c2ccc(C(=O)N3C[C@@H](C(=O)NCCc4ccc(F)cc4)[C@H](C(=O)NCCc4ccc(F)cc4)C3)cc2)C[C@H]1C(=O)NCCc1ccc(F)cc1
Prompt: Parameter check: reported EC50 is higher for which label, A or B ? Which one? Tell me its label.
Completion: A
